Where do these numbers come from? They come from PubChem BioAssay AID1159580.

assay: chemical genetic growth profiling, strain panel (AID 1159580);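 also: tested at 20 µM; growth read once vehicle control cultures reached saturation at 30 °C; 1 = growth at the plate median or of vehicle wells; lower values mean less growth of the strain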; conditions: S. cerevisiae deletion strains, growth OD, locus YPL209C, strain IPL1
About 2,000 (36%) of roughly 5,500 compounds were called active. Another 18% or so got no clear call; they are omitted. Rule as the data show it: active = normalized growth mostly below about 0.91 (no sharp cut-off); inconclusive = no clear call, values can overlap the other calls; inactive = mostly above about 0.92. Some of the results follow.
Outcomes: T for active, F for inactive

                                    compound  qualitative_label
 0  CCOC(=O)C1C(c2c(F)cccc2Cl)C(C(=O)OCC)C(O)(C(F)(F)F)NC1(O)C(F)(F)F (stereo not given)                  F
 1  O=C(Nc1cccc(C(F)(F)F)c1)c1cncc(C#Cc2ccccc2)c1                  F
 2  CC(=O)c1ccc(Cl)c(NS(=O)(=O)c2cc(Cl)c(Cl)cc2Cl)c1                  F
 3  Cc1nn(C)c(C(=O)Sc2ccc(OC(F)(F)F)cc2)c1[N+](=O)[O-]                  F
 4  Cc1cc(C(=O)NNS(=O)(=O)c2ccc(F)c(Cl)c2)nn1-c1c(Cl)cc(Cl)cc1Cl                  F
 5  Cc1ccc(S(=O)(=O)NC(=O)Nc2ccc(Sc3ccccc3)nc2Sc2ccccc2)cc1                  F
 6    O=C(/C=C/c1ccc2c(c1)OCO2)Nc1ccc(Br)cc1                  F
 7           COc1cc(Cl)ccc1N/N=C(/C#N)C(N)=O                  T
 8         CC1(C)CC(=O)C=C(Sc2nc3ccccc3o2)C1                  F
 9       N#C/C(=N/Nc1ccc(F)cc1)C(=O)c1ccccc1                  T
10  N/C(Cn1ccc(C(F)(F)F)n1)=N/OS(=O)(=O)c1cccc(Cl)c1Cl                  F
11  CC(C)(C)c1ccc(C(=N)SC(C(=O)C(F)(F)F)c2ccccc2)cc1 (stereo not given)                  F
12  O=C(NCc1ccc(Cl)c(Cl)c1)c1cccnc1OCC(F)(F)F                  F
13  N#C/C(=N/Nc1ccc(F)cc1)S(=O)(=O)c1ccc(Cl)cc1                  F
14  Cc1c(C(=O)Sc2ccc(F)cc2F)sc2nc(C(F)(F)F)nn12                  T
15           Cc1ccc(Nc2ccnc3cc(Cl)ccc23)cc1F                  F
16    O=C(ON=C1CCCCC1)c1ccc([N+](=O)[O-])cc1                  F
17  COc1cccc(C2CCN(C(=O)c3cccc4ccccc34)CC2)c1                  F
18  CC(C)c1ccc(COC(=O)Nc2ccc(CSc3ccc(Cl)cc3)o2)cc1                  F
19  N/C(CCSc1ccc(Cl)cc1)=N/OC(=O)Nc1ccc(Cl)cc1                  F
20   O=[N+]([O-])c1ccc(-c2noc(-c3ccno3)n2)o1                  T
21           Fc1cc(I)ccc1Nc1ccnc2cc(Cl)ccc12                  F
22       CC(C)(C)c1ccc(N/N=C(\C#N)C(N)=O)cc1                  T
23              CC(=O)/C(C#N)=N\Nc1ccc(F)cc1                  T
24  C/C(Cc1nnn(-c2cc(C)on2)n1)=N/OC(=O)Nc1ccc(Cl)cc1                  F

---

assay: chemical genetic growth profiling, strain panel (AID 1159580); conditions: S. cerevisiae deletion strains, growth OD, locus YPR141C, strain kar3, hits give low values
Among all 5,500 compounds or so, about 2,000 (36%) were called active. Inconclusive results (about 18%) are left out. The list shows a part of the results.
normalized growth by entry:
quantity: normalized growth

>>> df
                                   compound  readout_value
0  CCn1cc(C(=O)O)c(=O)c2cc(F)c(N3CCNCC3)nc21           1.01
1  CCn1cc(C(=O)O)c(=O)c2cc(F)c(N3CCNC(C)C3)c(F)c21 (stereo not given)          0.985
2  c1ccc2c(c1)CCCC2C1=NCCN1 (stereo not given)          0.981
3  O=C(Oc1cc(O)cc2c1C[C@@H](OC(=O)c1cc(O)c(O)c(O)c1)[C@@H](c1cc(O)c(O)c(O)c1)O2)c1cc(O)c(O)c(O)c1          0.974
4                            CN1CC(=O)N=C1N          0.989
5  O=C(O[C@@H]1Cc2c(O)cc(O)cc2O[C@@H]1c1ccc(O)c(O)c1)c1cc(O)c(O)c(O)c1              1
6  CC(=O)Oc1cc(OC(C)=O)c2c(c1)O[C@H](c1ccc(OC(C)=O)c(OC(C)=O)c1)[C@H](OC(C)=O)C2           1.02
7  CC(C)NCC(O)COc1cccc2[nH]ccc12 (stereo not given)          0.993
8  C[C@H]1COc2c(N3CCN(C)CC3)c(F)cc3c(=O)c(C(=O)O)cn1c23           1.02
9        COc1cc(CNC(=O)CCCC/C=C/C(C)C)ccc1O          0.996

---

assay: chemical genetic growth profiling, strain panel (AID 1159580);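 also: tested at 20 µM; growth read once vehicle control cultures reached saturation at 30 °C; 1 = growth at the plate median or of vehicle wells; lower values mean less growth of the strain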; conditions: S. cerevisiae deletion strains, growth OD, locus YOL006C, strain TOP1
Hit rate of the full screen: of about 5,500 compounds, about 2,000 (36%) were called active. Another 18% or so got no clear call; they are omitted. No stated cut-off is given here; in the data, active means normalized growth mostly below about 0.91 (no sharp cut-off); inconclusive means no clear call, values can overlap the other calls; inactive means mostly above about 0.92. The list shows a part of the results.
Classes used: Y for active, N for inactive

                                   compound  qualitative_label
0  CCN1CCCC(OC(=O)C(c2ccccc2)c2ccccc2)C1 (stereo not given)                  N
1  COc1cc(OC)c2c(c1)O[C@H](c1cc(OC)c(OC)c(OC)c1)[C@H](OC(=O)c1cc(OC)c(OC)c(OC)c1)C2                  N
2                Cc1nn(C)c(C)c1[N+](=O)[O-]                  N
3  O=C(O[C@@H]1Cc2c(O)cc(O)cc2O[C@@H]1c1ccc(O)c(O)c1)c1cc(O)c(O)c(O)c1                  Y
4                  CCCCCCCCCCCCN1CNC(=S)NC1                  Y
5                             O=S(=O)(O)CCS                  N
6           Cc1ncc(CNC(=O)N(CCCl)N=O)c(N)n1                  N
7  CCCCC[C@H]1C(=O)O[C@H](C)[C@H](NC(=O)c2cccc(NC=O)c2O)C(=O)O[C@@H](C)[C@@H]1OC(=O)CC(C)C                  N
8  O=C(Oc1cc(OC(=O)c2ccccc2)c2c(c1)O[C@H](c1ccc(OC(=O)c3ccccc3)c(OC(=O)c3ccccc3)c1)[C@@H](OC(=O)c1ccccc1)C2)c1ccccc1                  N
9                            NCCCS(=O)(=O)O                  N

---

test: chemical genetic growth profiling, strain panel (AID 1159580);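 also: tested at 20 µM; growth read once vehicle control cultures reached saturation at 30 °C; 1 = growth at the plate median or of vehicle wells; lower values mean less growth of the strain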; details: S. cerevisiae deletion strains, growth OD, locus YNL298W, strain CLA4 (second series), hits give low values
The whole screen tested about 5,500 compounds, of which about 2,000 (36%) were called active. Another 18% or so got no clear call; they are omitted. The list shows a part of the results.
Label criterion met when normalized growth < 1; otherwise criterion not met.

>>> df
                                smiles_str  qualitative_label
0                        O=C(O)CSCc1ccccc1  criterion not met
1  CC(C)(C)S(=O)(=O)/C(C#N)=C/c1ccc(F)cc1F  criterion not met
2                    Cc1nc(N)ncc1Sc1ccccc1      criterion met
3        O=C(NNC(=S)Nc1cccc(Cl)c1)c1ccncc1      criterion met

---

experiment: chemical genetic growth profiling, strain panel (AID 1159580);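 also: tested at 20 µM; growth read once vehicle control cultures reached saturation at 30 °C; 1 = growth at the plate median or of vehicle wells; lower values mean less growth of the strain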; conditions: S. cerevisiae deletion strains, growth OD, locus YPL240C, strain hsp82
The whole screen tested about 5,500 compounds, of which about 2,000 (36%) were called active. Another 18% or so got no clear call; they are omitted. Cut-off read from the data, not from the text of the source: active = normalized growth mostly below about 0.91 (no sharp cut-off); inconclusive = no clear call, values can overlap the other calls; inactive = mostly above about 0.92. The list shows a part of the results.
Labels: active, inactive

molecule	qualitative_label
Oc1cc(O)c2c(c1)O[C@H](c1ccc(O)c(O)c1)[C@@H](O)C2	inactive
Oc1cc(O)c2c(c1)O[C@H](c1ccc(O)c(O)c1)[C@H](O)C2	inactive
Oc1cc(O)c2c(c1)O[C@H](c1cc(O)c(O)c(O)c1)[C@H](O)C2	inactive
O=C(/C=C/c1ccc(O)c(O)c1)OC(Cc1ccc(O)c(O)c1)C(=O)O (stereo not given)	inactive
COc1ccc([C@H]2Oc3c(I)c(OC)cc(OC)c3C[C@@H]2O)cc1OC	inactive
O=C(/C=C/c1ccc(O)c(O)c1)OCCc1ccccc1	active
CC[C@@H](C(=O)C(C)[C@@H](O)[C@H](C)CCc1ccc(C)c(O)c1C(=O)O)C1OC(CC)(C2CC[C@](O)(CC)[C@H](C)O2)C[C@@H]1C (stereo not given in full)	inactive
CN1C2CCC1CC(OC(c1ccccc1)c1ccccc1)C2 (stereo not given)	inactive
O=C(O)/C=C/c1ccc(O)c(O)c1	inactive
Oc1ccc2c(c1)O[C@H](c1ccc(O)c(O)c1)[C@@H](O)C2	inactive
